system: HEK-293T; assay: Multiplex assay against HEK293T; assay type: toxicity, cell-based; conditions: human, 12 h, 1 µM, compound concentration 1 uM, replicate 2
Decision: Population Healthy Nuclei (%) beneath 30% gives t; Population Healthy Nuclei (%) meeting or exceeding 30% gives f.

Is it true that Population Healthy Nuclei (%) reported for C[C@@H](NCCCc1cccc(C(F)(F)F)c1)c1cccc2ccccc12.Cl [CINACALCET HYDROCHLORIDE] is less than 30%?
f

Is it true that Population Healthy Nuclei (%) reported for Cl.N#Cc1ccc2[nH]cc(CCCCN3CCN(c4ccc5oc(C(N)=O)cc5c4)CC3)c2c1 [VILAZODONE HYDROCHLORIDE] is less than 30%?
f

Is it true that Population Healthy Nuclei (%) reported for "Cc1nc(-c2cn3c(n2)-c2ccc(-c4cnn(C(C)(C)C(N)=O)c4)cc2OCC3)n(C(C)C)n1" is less than 30%?
f

Is it true that Population Healthy Nuclei (%) reported for O=C1NCN(c2ccccc2)C12CCN(CCCOc1ccc(F)cc1)CC2 [SPIRAMIDE] is less than 30%?
f

Is it true that Population Healthy Nuclei (%) reported for "Cc1csc2c(N[C@@H](C)CN3CCN(S(=O)(=O)c4ccc(Cl)c(Cl)c4)CC3)ncnc12" is less than 30%?
t

Is it true that Population Healthy Nuclei (%) reported for "CN(C)C(=O)/C(C#N)=C/c1ccc(-c2nc3cnc4[nH]ccc4c3n2C2CCCCC2)o1" is less than 30%?
f

Is it true that Population Healthy Nuclei (%) reported for "Cc1c(-c2ccc(O)cc2)n(Cc2ccc(OCCN3CCCCCC3)cc2)c2ccc(O)cc12" is less than 30%?
f

Is it true that Population Healthy Nuclei (%) reported for "C[C@@]1(C(=O)Nc2ccc(F)nc2)CCCN1c1nc(Nc2cc(C3CC3)n[nH]2)c2cccn2n1" is less than 30%?
f

Is it true that Population Healthy Nuclei (%) reported for "C=CC(=O)Nc1ccc2ncnc(Nc3ccc(OCc4cccc(F)c4)c(Cl)c3)c2c1.Cc1ccc(S(=O)(=O)O)cc1" is less than 30%?
f

Is it true that Population Healthy Nuclei (%) reported for CN1CCCC(n2nc(Cc3ccc(Cl)cc3)c3ccccc3c2=O)CC1.Cl (configuration not stated) [AZELASTINE HYDROCHLORIDE] is less than 30%?
t

Is it true that Population Healthy Nuclei (%) reported for "COc1cc2nccc(Oc3ccc(NC(=O)Nc4cc(C)on4)c(Cl)c3)c2cc1OC.O" is less than 30%?
f

Is it true that Population Healthy Nuclei (%) reported for CN(C)C(=O)N[C@H]1CC[C@H](CCN2CCN(c3cccc(Cl)c3Cl)CC2)CC1.Cl [CARIPRAZINE HYDROCHLORIDE] is less than 30%?
f

Is it true that Population Healthy Nuclei (%) reported for "Cc1nc(Nc2n[nH]c3c2CN(C(=O)N[C@H](CN(C)C)c2ccccc2)C3(C)C)c2sccc2n1" is less than 30%?
f

Is it true that Population Healthy Nuclei (%) reported for "Cn1cc(-c2[nH]c3cc(NC(=O)[C@H](N)C4CCCCC4)cc4c3c2C=NNC4=O)cn1" is less than 30%?
t

Is it true that Population Healthy Nuclei (%) reported for "COc1ncc(-c2ccc3nccc(-c4ccnnc4)c3c2)cc1NS(=O)(=O)c1ccc(F)cc1F" is less than 30%?
t

Is it true that Population Healthy Nuclei (%) reported for "Cc1nc(-c2ccc(-c3ccc(C(=O)N4CCc5cc6c(cc54)C4(CCN(C)CC4)CO6)cc3)c(C)c2)no1" is less than 30%?
f

Is it true that Population Healthy Nuclei (%) reported for "c1cn2cc(-c3ccc4cn[nH]c4c3)nc(Nc3ccc(N4CCOCC4)cc3)c2n1" is less than 30%?
f

Is it true that Population Healthy Nuclei (%) reported for "COc1cc(-n2cnc3cc(-c4ccc(Cl)cc4)sc3c2=O)ccc1OCCN1CCCC1" is less than 30%?
f

Is it true that Population Healthy Nuclei (%) reported for "CNc1nc(NCc2ccc(NS(C)(=O)=O)cc2Cl)cc(-c2ccccn2)n1" is less than 30%?
f

Is it true that Population Healthy Nuclei (%) reported for "NC(=O)Nc1cc(-c2cccc(F)c2)sc1C(=O)N[C@H]1CCCNC1" is less than 30%?
f

Is it true that Population Healthy Nuclei (%) reported for "OC1(c2ccc(Cl)cc2)CCN(Cc2c[nH]c3ccccc23)CC1" is less than 30%?
t

Is it true that Population Healthy Nuclei (%) reported for "Cc1[nH]c(/C=C2\C(=O)Nc3ccc(S(=O)(=O)N(C)c4cccc(Cl)c4)cc32)c(C)c1C(=O)N1CCN(C)CC1" is less than 30%?
f

Is it true that Population Healthy Nuclei (%) reported for "CN(C)CC#Cc1ccc(OCCCc2sc(N3CCc4cccc(C(=O)Nc5nc6ccccc6s5)c4C3)nc2C(=O)O)c(F)c1" is less than 30%?
f

Is it true that Population Healthy Nuclei (%) reported for CN1CCC[C@@H]1CCO[C@](C)(c1ccccc1)c1ccc(Cl)cc1.O=C(O)/C=C/C(=O)O [CLEMASTINE FUMARATE] is less than 30%?
f

Is it true that Population Healthy Nuclei (%) reported for "Cc1cc(C)cc(-c2cnc3cc(Cl)c(-c4cccc(O)c4)cc3c2OCCCN)c1" is less than 30%?
f

Is it true that Population Healthy Nuclei (%) reported for CC(C)NCC(O)COc1ccc(CCOCC2CC2)cc1.Cl (configuration not stated) [BETAXOLOL HYDROCHLORIDE] is less than 30%?
f

Is it true that Population Healthy Nuclei (%) reported for COc1cccc([C@@H](C)NCCCc2ccccc2Cl)c1.Cl [TECALCET HYDROCHLORIDE] is less than 30%?
t

Is it true that Population Healthy Nuclei (%) reported for "CN1CCN(CCOc2cc(OC3CCOCC3)c3c(Nc4c(Cl)ccc5c4OCO5)ncnc3c2)CC1" is less than 30%?
f

Is it true that Population Healthy Nuclei (%) reported for "CC(C)(O)CNc1ncc(-c2ccnc(Nc3ccnc(Cl)c3)n2)c(CC2CC2)n1" is less than 30%?
t

Is it true that Population Healthy Nuclei (%) reported for "CC[C@H](C)C(=O)O[C@H]1C[C@@H](C)C=C2C=C[C@H](C)[C@H](CC[C@@H]3C[C@@H](O)CC(=O)O3)[C@H]21" is less than 30%?
f

Is it true that Population Healthy Nuclei (%) reported for "C=CC(=O)Nc1cccc(C(=O)Nc2ccc(Nc3cc(-c4[nH]c(SC)nc4C)ccn3)cc2)c1" is less than 30%?
f

* * *

test system: HEK-293T; experiment: Multiplex assay against HEK293T; format: toxicity, cell-based; details: human, 24 h, 10 µM, compound concentration 10 uM, replicate 2
I'd be grateful if you could share measured Population Healthy Nuclei (%) for these entries.
Your answer should be a plain number; it is taken to be in %.

Data request, read-out Population Healthy Nuclei (%), for "Cc1c(-c2ccc(O)cc2)n(Cc2ccc(OCCN3CCCCCC3)cc2)c2ccc(O)cc12"
5

Data request, read-out Population Healthy Nuclei (%), for "OC1(c2ccc(Cl)cc2)CCN(Cc2c[nH]c3ccccc23)CC1"
8

Data request, read-out Population Healthy Nuclei (%), for "CC(C)(O)CNc1ncc(-c2ccnc(Nc3ccnc(Cl)c3)n2)c(CC2CC2)n1"
2

Data request, read-out Population Healthy Nuclei (%), for CN(C)C(=O)N[C@H]1CC[C@H](CCN2CCN(c3cccc(Cl)c3Cl)CC2)CC1.Cl [CARIPRAZINE HYDROCHLORIDE]
37

Data request, read-out Population Healthy Nuclei (%), for CN1CCCC(n2nc(Cc3ccc(Cl)cc3)c3ccccc3c2=O)CC1.Cl (stereo not drawn) [AZELASTINE HYDROCHLORIDE]
33

Data request, read-out Population Healthy Nuclei (%), for Cl.N#Cc1ccc2[nH]cc(CCCCN3CCN(c4ccc5oc(C(N)=O)cc5c4)CC3)c2c1 [VILAZODONE HYDROCHLORIDE]
12

Data request, read-out Population Healthy Nuclei (%), for "Cc1nc(-c2ccc(-c3ccc(C(=O)N4CCc5cc6c(cc54)C4(CCN(C)CC4)CO6)cc3)c(C)c2)no1"
24

Data request, read-out Population Healthy Nuclei (%), for "Cc1csc2c(N[C@@H](C)CN3CCN(S(=O)(=O)c4ccc(Cl)c(Cl)c4)CC3)ncnc12"
7

* * *

test system: U2OS; assay: Multiplex assay against U2OS; type: toxicity, cell-based; conditions: human, 48 h, 1 µM, compound concentration 1 uM, replicate 1
Hi all, reminder that labels come from Population Hoechst High Intensity Objects (%), split as class A = under 3%, class B = from 3% up to 5%, class C = 5% and over

Band for the recorded Population Hoechst High Intensity Objects (%) of COc1cccc([C@@H](C)NCCCc2ccccc2Cl)c1.Cl [TECALCET HYDROCHLORIDE] ?
class C

Band for the recorded Population Hoechst High Intensity Objects (%) of "CNc1nc(NCc2ccc(NS(C)(=O)=O)cc2Cl)cc(-c2ccccn2)n1" ?
class C

Band for the recorded Population Hoechst High Intensity Objects (%) of C[C@@H](NCCCc1cccc(C(F)(F)F)c1)c1cccc2ccccc12.Cl [CINACALCET HYDROCHLORIDE] ?
class A

Band for the recorded Population Hoechst High Intensity Objects (%) of Cl.N#Cc1ccc2[nH]cc(CCCCN3CCN(c4ccc5oc(C(N)=O)cc5c4)CC3)c2c1 [VILAZODONE HYDROCHLORIDE] ?
class C

Band for the recorded Population Hoechst High Intensity Objects (%) of "Cc1cc(C)cc(-c2cnc3cc(Cl)c(-c4cccc(O)c4)cc3c2OCCCN)c1" ?
class A

Band for the recorded Population Hoechst High Intensity Objects (%) of O=C(NCCCC1CCCCC1)c1ccc(CNC(=O)c2cnn(-c3ccccc3)c2C(F)(F)F)cc1 [SR-321] ?
class A

Band for the recorded Population Hoechst High Intensity Objects (%) of "Cc1[nH]c(/C=C2\C(=O)Nc3ccc(S(=O)(=O)N(C)c4cccc(Cl)c4)cc32)c(C)c1C(=O)N1CCN(C)CC1" ?
class B

Band for the recorded Population Hoechst High Intensity Objects (%) of "CC(C)(O)CNc1ncc(-c2ccnc(Nc3ccnc(Cl)c3)n2)c(CC2CC2)n1" ?
class A

Band for the recorded Population Hoechst High Intensity Objects (%) of O=C1NCN(c2ccccc2)C12CCN(CCCOc1ccc(F)cc1)CC2 [SPIRAMIDE] ?
class B

Band for the recorded Population Hoechst High Intensity Objects (%) of CN(C)CC#Cc1ccc(OCCCc2sc(N3CCc4cccc(C(=O)Nc5nc6ccccc6s5)c4C3)nc2C(=O)O)c(F)c1 [A-1155463] ?
class C

Band for the recorded Population Hoechst High Intensity Objects (%) of Cc1c(-c2ccc(O)cc2)n(Cc2ccc(OCCN3CCCCCC3)cc2)c2ccc(O)cc12 [BAZEDOXIFENE] ?
class C
